Target: BRM (Homo sapiens, UniProt P51531)
Construct: In-Cell Western Screen of BRM Degradation in SW1573 Cells; endogenous in cells; host or cells: SW1573
Sequence (P51531 whole entry): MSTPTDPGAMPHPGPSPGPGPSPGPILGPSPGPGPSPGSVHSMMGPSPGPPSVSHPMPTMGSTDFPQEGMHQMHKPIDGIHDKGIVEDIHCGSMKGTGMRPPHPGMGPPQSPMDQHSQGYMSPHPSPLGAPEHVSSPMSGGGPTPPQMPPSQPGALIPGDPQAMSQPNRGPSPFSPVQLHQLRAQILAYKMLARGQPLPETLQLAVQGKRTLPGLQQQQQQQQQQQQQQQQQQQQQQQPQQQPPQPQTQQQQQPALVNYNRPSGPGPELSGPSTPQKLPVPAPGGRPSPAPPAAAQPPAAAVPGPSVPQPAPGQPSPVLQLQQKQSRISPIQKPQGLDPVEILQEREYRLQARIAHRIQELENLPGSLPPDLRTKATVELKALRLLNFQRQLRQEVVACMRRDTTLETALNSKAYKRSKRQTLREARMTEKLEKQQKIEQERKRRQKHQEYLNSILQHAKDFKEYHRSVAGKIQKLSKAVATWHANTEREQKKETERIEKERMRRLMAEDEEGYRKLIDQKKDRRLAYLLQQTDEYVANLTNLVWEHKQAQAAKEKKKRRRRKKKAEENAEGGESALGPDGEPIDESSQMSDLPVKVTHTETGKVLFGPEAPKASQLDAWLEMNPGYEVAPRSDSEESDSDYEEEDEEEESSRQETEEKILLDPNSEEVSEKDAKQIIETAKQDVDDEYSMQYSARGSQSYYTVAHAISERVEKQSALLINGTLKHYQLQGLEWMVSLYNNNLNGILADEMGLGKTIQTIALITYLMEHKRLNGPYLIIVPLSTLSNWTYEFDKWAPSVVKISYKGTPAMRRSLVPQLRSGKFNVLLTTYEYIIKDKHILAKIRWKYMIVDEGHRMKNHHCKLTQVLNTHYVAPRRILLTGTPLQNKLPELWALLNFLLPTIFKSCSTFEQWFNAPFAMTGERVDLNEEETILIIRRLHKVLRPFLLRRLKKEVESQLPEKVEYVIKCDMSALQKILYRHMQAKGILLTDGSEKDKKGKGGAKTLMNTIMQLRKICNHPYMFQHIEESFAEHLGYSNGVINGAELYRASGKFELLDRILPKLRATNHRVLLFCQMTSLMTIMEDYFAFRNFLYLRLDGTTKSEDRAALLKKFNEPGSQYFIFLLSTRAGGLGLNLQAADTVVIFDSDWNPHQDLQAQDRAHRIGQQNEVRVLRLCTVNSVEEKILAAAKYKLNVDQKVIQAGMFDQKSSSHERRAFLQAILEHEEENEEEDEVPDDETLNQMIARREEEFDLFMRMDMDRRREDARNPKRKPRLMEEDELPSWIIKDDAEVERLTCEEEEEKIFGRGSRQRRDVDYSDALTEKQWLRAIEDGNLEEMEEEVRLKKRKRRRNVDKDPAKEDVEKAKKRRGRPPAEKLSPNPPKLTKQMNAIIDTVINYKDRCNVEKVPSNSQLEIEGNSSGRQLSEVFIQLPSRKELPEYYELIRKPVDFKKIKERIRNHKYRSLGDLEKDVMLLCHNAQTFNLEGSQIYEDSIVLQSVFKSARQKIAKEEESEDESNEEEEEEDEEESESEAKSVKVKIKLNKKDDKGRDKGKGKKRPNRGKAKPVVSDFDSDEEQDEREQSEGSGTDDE
Test: In-cell Western screen of BRM degradation in SW1573 cells (Dmax and DC50)
Format: cell-based
Conditions: target protein degradation; read-out: BRM DC50
Observable: DC50

What measured DC50 goes with Cc1ncsc1-c1ccc([C@H](C)NC(=O)C2C[C@@H](O)CN2C(=O)[C@H](c2onc(OCCN3CCC(O[C@H]4C[C@H](Oc5cc(N6C7CCC6CN(c6cc(-c8ccccc8O)nnc6N)C7)ccn5)C4)CC3)c2Cl)C(C)C)cc1 (stereo partly shown) [compound 361] ?
> 30 nM

One more compound: Cc1ncsc1-c1ccc([C@H](C)NC(=O)[C@@H]2C[C@@H](O)CN2C(=O)[C@@H](c2cc(N3CCC(OC4CCN(C[C@H]5C[C@H](Oc6cc(N7C8CCC7CN(c7cc(-c9ccccc9O)nnc7N)C8)ccn6)C5)CC4)CC3)no2)C(C)C)cn1 [compound 476]
< 2.5 nM

One more compound: Cc1ncn(C)c1-c1ccc([C@H](C)NC(=O)[C@@H]2C[C@@H](O)CN2C(=O)[C@H](c2cc(OCCN3CCC(O[C@H]4C[C@H](Oc5cc(N6C7CCC6CN(c6cc(-c8ccccc8O)nnc6N)C7)ccn5)C4)CC3)no2)C(C)C)cc1 [compound 365]
> 30 nM

One more compound: Cc1ncsc1-c1ccc([C@H](C)NC(=O)[C@@H]2C[C@@H](O)CN2C(=O)[C@H](c2cc(OCCCN3CCN(CCCOc4cc(N5C6CCC5CN(c5cc(-c7ccccc7O)nnc5N)C6)ccn4)CC3)no2)C(C)C)cc1 [compound 384]
2.5 to 10 nM

One more compound: Cc1ncsc1-c1ccc([C@H](C)NC(=O)[C@@H]2C[C@@H](O)CN2C(=O)[C@H](c2cc(OCC(F)(F)CN3CCC(O[C@H]4C[C@H](Oc5cc(N6C7CCC6CN(c6cc(-c8ccccc8O)nnc6N)C7)ccn5)C4)CC3)no2)C(C)C)cc1 [compound 483]
> 30 nM

One more compound: Cc1ncsc1-c1ccc([C@H](C)NC(=O)[C@@H]2C[C@@H](O)CN2C(=O)[C@H](c2cc(OCCN3CCC(O[C@H]4C[C@H](Oc5nccc(N6C7CCC6CN(c6cc(-c8ccccc8O)nnc6N)C7)n5)C4)CC3)no2)C(C)C)cc1 [compound 463]
> 30 nM

One more compound: Cc1ncsc1-c1ccc([C@H](C)NC(=O)[C@@H]2C[C@@H](O)CN2C(=O)[C@@H](c2cc(OCCN3CCC(O[C@H]4C[C@H](Oc5cc(N6C7CCC6CN(c6cc(-c8ccccc8O)nnc6N)C7)ccn5)C4)CC3)no2)C(C)C)nc1 [compound 368]
< 2.5 nM

One more compound: Cc1ncsc1-c1ccc([C@H](C)NC(=O)[C@@H]2C[C@@H](O)CN2C(=O)[C@H](c2cc(OCCC3CCN(C(=O)[C@H]4C[C@@H](CN5CCC(n6cc(-c7cc(-c8ccccc8O)nnc7N)cn6)CC5)C4)CC3)no2)C(C)C)cc1 [compound 465]
< 2.5 nM

One more compound: Cc1ncsc1-c1ccc([C@H](C)NC(=O)[C@@H]2C[C@@H](O)CN2C(=O)[C@H](c2cc(OCC#Cc3ncc(O[C@H]4C[C@H](Oc5cc(N6C7CCC6CN(c6cc(-c8ccccc8O)nnc6N)C7)ccn5)C4)cn3)no2)C(C)C)cn1 [compound 399]
> 30 nM

One more compound: Cc1nccn1-c1ccc([C@H](C)NC(=O)[C@@H]2C[C@@H](O)CN2C(=O)[C@@H](c2cc(OCCN3CCC(O[C@H]4C[C@H](Oc5cc(N6C7CCC6CN(c6cc(-c8ccccc8O)nnc6N)C7)ccn5)C4)CC3)no2)C(C)C)cn1 [compound 398]
< 2.5 nM

One more compound: Cc1ncsc1-c1ccc([C@H](C)NC(=O)[C@@H]2C[C@@H](O)CN2C(=O)[C@@H](c2cc(OCCN3CCC(O[C@H]4C[C@H](Oc5cnnc(N6C7CCC6CN(c6cc(-c8ccccc8O)nnc6N)C7)c5)C4)CC3)no2)C(C)C)cc1 [compound 471]
< 2.5 nM

One more compound: Cc1ncsc1-c1ccc([C@H](C)NC(=O)[C@@H]2C[C@@H](O)CN2C(=O)[C@@H](c2cc(OCC#Cc3ncc(O[C@H]4C[C@H](Oc5cc(N6C7CCC6CN(c6cc(-c8ccccc8O)nnc6N)C7)ccn5)C4)cn3)no2)C(C)C)cn1 [compound 400]
< 2.5 nM

One more compound: Cc1ncsc1-c1ccc([C@H](C)NC(=O)[C@@H]2C[C@@H](O)CN2C(=O)[C@H](c2cc(OCCN3CCC(O[C@H]4C[C@H](OCCN5CCOC6(CCN(c7cc(-c8ccccc8O)nnc7N)CC6)C5)C4)CC3)no2)C(C)C)cc1 [compound 358]
> 30 nM

One more compound: Cc1ncsc1-c1ccc([C@H](C)NC(=O)[C@@H]2C[C@@H](O)CN2C(=O)[C@@H](c2cc(OCCCCN3CCN(CCCCOc4cc(N5C6CCC5CN(c5cc(-c7ccccc7O)nnc5N)C6)ccn4)CC3)no2)C(C)C)cc1 [compound 390]
< 2.5 nM

One more compound: Cc1ncsc1-c1ccc([C@H](C)NC(=O)[C@@H]2C[C@@H](O)CN2C(=O)[C@@H](c2cc(OCC[C@H]3CC[C@H](O[C@H]4C[C@H](Oc5cc(N6C7CCC6CN(c6cc(-c8ccccc8O)nnc6N)C7)ccn5)C4)CC3)no2)C(C)C)cn1 [compound 486]
< 2.5 nM

One more compound: Cc1cnc(C)n1-c1ccc([C@H](C)NC(=O)[C@@H]2C[C@@H](O)CN2C(=O)[C@H](c2cc(OCCN3CCC(O[C@H]4C[C@H](Oc5cc(N6C7CCC6CN(c6cc(-c8ccccc8O)nnc6N)C7)ccn5)C4)CC3)no2)C(C)C)cc1 [compound 375]
> 30 nM
